// provenance: PubChem BioAssay AID488969

Target: Metabotropic glutamate receptor 8 (Rattus norvegicus) (UniProt P70579)
Sequence (P70579 whole entry, looked up): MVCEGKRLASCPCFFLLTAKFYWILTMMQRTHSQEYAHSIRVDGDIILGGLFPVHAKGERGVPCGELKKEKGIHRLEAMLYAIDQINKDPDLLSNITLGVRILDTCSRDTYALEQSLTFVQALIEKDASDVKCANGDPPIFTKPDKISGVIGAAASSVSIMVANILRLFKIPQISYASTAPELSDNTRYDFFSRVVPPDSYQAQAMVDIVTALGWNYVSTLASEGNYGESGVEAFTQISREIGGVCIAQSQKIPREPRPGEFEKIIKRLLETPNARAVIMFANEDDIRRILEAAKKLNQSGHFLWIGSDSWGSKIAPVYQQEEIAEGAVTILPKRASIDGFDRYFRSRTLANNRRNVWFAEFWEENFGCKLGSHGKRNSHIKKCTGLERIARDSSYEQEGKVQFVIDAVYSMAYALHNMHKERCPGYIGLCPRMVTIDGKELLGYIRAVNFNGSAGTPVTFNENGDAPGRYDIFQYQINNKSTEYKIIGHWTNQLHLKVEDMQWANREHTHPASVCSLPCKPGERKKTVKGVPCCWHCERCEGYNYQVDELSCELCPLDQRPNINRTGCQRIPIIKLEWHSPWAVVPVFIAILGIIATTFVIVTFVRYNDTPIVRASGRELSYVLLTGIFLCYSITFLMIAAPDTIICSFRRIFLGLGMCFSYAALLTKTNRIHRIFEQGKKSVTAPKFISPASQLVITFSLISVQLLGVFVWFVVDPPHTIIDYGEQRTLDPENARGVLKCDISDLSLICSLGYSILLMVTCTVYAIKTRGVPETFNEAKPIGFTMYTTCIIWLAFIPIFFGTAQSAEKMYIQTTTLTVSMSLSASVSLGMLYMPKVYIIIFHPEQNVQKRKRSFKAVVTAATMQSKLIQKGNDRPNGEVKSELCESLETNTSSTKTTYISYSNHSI
Assay: mGluR8 Gi/Go-coupled signaling modulation – cell-based, rat, thallium flux, HTS, primary screen (AID 488969)
Details: HEK293 rat mGluR8, GIRK thallium flux, FluoZin2; at 10 µM; stronger effect = higher value; submaximal glutamate (EC20) added with thallium
In all, about 110,000 compounds were measured (“z-score”: median about -0.1, highest 2% from about 2 on). Many of the other results were omitted from the sample, so the highest values are more common in it than they were.
Entries and their z-score values follow.
No unit in the answer, only the number.

Here's what some known entries look like.
>>> df
                              chemsmiles  endpointresult
0            Cc1ccc(NC(=O)Cn2cccc2)cc1Cl            2.51
1          O=C(COc1ccccc1O)Nc1ccc(Cl)cc1         -0.0165
2            Cc1ccc(NC(=O)CSC(N)=O)cc1Cl            5.44
3               N#CCSCC(=O)Nc1ccc(Cl)cc1           0.285
4             NC(=O)SCC(=O)Nc1cccc(Cl)c1            2.86
5  COC(=O)Nc1ccc(S(=O)(=O)Nc2ccccc2F)cc1         0.00713

Problem: Bench note: what z-score did Cc1ccc(NC(=O)CSCC#N)cc1Cl show?
Result: -0.0832

###

Target: Metabotropic glutamate receptor 8 (Rattus norvegicus) (UniProt P70579)
Assay: mGluR8 Gi/Go-coupled signaling modulation – cell-based, rat, thallium flux, HTS, primary screen (AID 488969)
Details: HEK293 rat mGluR8, GIRK thallium flux, FluoZin2; at 10 µM; stronger effect = higher value; submaximal glutamate (EC20) added with thallium
In all, about 110,000 compounds were measured (“z-score”: median about -0.1, highest 2% from about 2 on). Many of the other results were omitted from the sample, so the highest values are more common in it than they were.
Think of 4 as a floor: if z-score stands on it or above, it is True; beneath it, False.

Take a look at these entries with their results.
>>> df
                                   compound  group
0  CCN=c1sc2ccccc2n1CC(O)COc1ccccc1 (stereo unspecified)  False
1  Cn1c(=NCC(O)COc2ccccc2)sc2ccccc21 (stereo unspecified)  False
2  COc1ccc(C2c3c(oc4ccccc4c3=O)C(=O)N2c2ccccn2)cc1 (stereo unspecified)  False

Problem: Determine whether this compound has z-score no lower than 4: CN(C)CCN1C(=O)c2oc3ccccc3c(=O)c2C1c1cccc(Br)c1 (stereo unspecified)
Result: False

Problem: Determine whether this compound has z-score no lower than 4: CCCOc1ccc(C2c3c(oc4ccccc4c3=O)C(=O)N2CCN(CC)CC)cc1OC (stereo unspecified)
Result: False

Problem: Determine whether this compound has z-score no lower than 4: CCN(CC)CCN1C(=O)c2oc3ccccc3c(=O)c2C1c1ccc(F)cc1 (stereo unspecified)
Result: True

###

Entries and their z-score values follow.
Target: Metabotropic glutamate receptor 8 (Rattus norvegicus) (UniProt P70579)
Test: mGluR8 Gi/Go-coupled signaling modulation – cell-based, rat, thallium flux, HTS, primary screen (AID 488969)
Details: HEK293 rat mGluR8, GIRK (G protein-gated inwardly rectifying potassium channel) thallium flux, FluoZin2; at 10 µM; stronger effect = higher value; submaximal glutamate (EC20) added with thallium
In all, about 110,000 compounds were measured (“z-score”: median about -0.1, highest 2% from about 2 on). The list comes from a sample in which the highest values are over-represented; it also holds close analogues and randomly drawn compounds.
No unit in the answer, only the number.

In [3]: df
Out[3]:
                                   compound  endpointresult
0  CCCCCOc1ccc(C(=O)C(c2ccccc2)N2CCOCC2)cc1 (stereo unspecified)           0.204
1  CCCc1nn(C(=O)c2ccccc2)c2c1C(=O)CC(C)(C)C2          0.0989
2  CCc1nc(SCc2nnc(-c3ccc(C)cc3)o2)c2c(C)c(C)sc2n1            2.26

Problem: Bench note: what z-score did Cc1ccc(-c2nnc(CSc3nnc(C)s3)o2)cc1 show?
Result: 0.552

Problem: Bench note: what z-score did CCn1cc(CNC(=O)CCSc2nc(-c3ccco3)cc(C(F)(F)F)n2)cn1 show?
Result: -0.23

Problem: Bench note: what z-score did COc1ccc(Cl)cc1NC(=O)CN(C)C1CCCCC1 show?
Result: 0.225

Problem: Bench note: what z-score did COc1ccc(C(=O)C(c2ccccc2)N2CCOCC2)cc1 (stereo unspecified) show?
Result: 2.44
